Assay: Pharmacokinetic profile and brain distribution in mice after oral administration
Type: in vivo, mice (ICR)
Conditions: male, ICR (CD-1), mouse, oral 30 mg/kg, plasma
Protocol: Example 1 evaluated pharmacokinetic profile and brain distribution of belvarafenib in mice after oral administration. The mouse strain was ICR (CD-1®) supplied by Orient Bio Inc., Korea. […] In a single one day dosing regimen, mice were fasted overnight. The body weight of the mice was measured on the day of treatment, from which dosing volumes were set. […] Plasma and brain concentrations of belvarafenib determined by analysis using LC-MS/MS (Waters UPLC H-Class/Xevo TQ (Waters USA)). […]
RECORDED ENDPOINT: AUC(0-inf) (µg·h/mL)
Give a bare numeral; the unit µg·h/mL is implied.

The compound identified as Cc1ccc2c(Nc3cccc(Cl)c3F)nccc2c1NC(=O)c1csc2c(N)ncnc12 [Belvarafenib] registered its AUC(0-inf) at 133

###

Test: Pharmacokinetic profile and brain distribution in rats after oral administration
Type: in vivo, rats (SD)
Settings: SD (Sprague-Dawley), rat, oral 30 mg/kg, plasma
Description: Example 2 evaluated pharmacokinetic profile and brain distribution of belvarafenib in rats after oral administration. The rat strain was SD supplied by Orient Bio Inc., Korea. […] In a single one day dosing regimen, rats were fasted overnight. The body weight of the rats was measured on the day of treatment, from which dosing volumes were set. […] Plasma and brain concentrations of belvarafenib determined by analysis using LC-MS/MS (Waters UPLC H-Class/Xevo TQ (Waters USA)). […]
RECORDED ENDPOINT: Tmax

Briefly, Tmax measured for Cc1ccc2c(Nc3cccc(Cl)c3F)nccc2c1NC(=O)c1csc2c(N)ncnc12 : 7 h

###

assay: Pharmacokinetic profile and brain distribution in rats after oral administration; assay type: in vivo, rats (SD); settings: male, SD, rat, oral 15 mg/kg, AUClast brain / AUClast plasma, read-out: B/P ratio
RECORDED ENDPOINT: Kp
Number only, please.

Measured Kp of Cc1ccc2c(Nc3cccc(Cl)c3F)nccc2c1NC(=O)c1csc2c(N)ncnc12 : 1.38

###

assay: Pharmacokinetic profile and brain distribution in mice after oral administration; type: in vivo, mice (ICR); settings: male, ICR (CD-1), mouse, oral 30 mg/kg, plasma
RECORDED ENDPOINT: AUC(0-t) (µg·h/mL)
API: value field is a number in µg·h/mL; no unit string.

Field AUC(0-t) (entry Cc1ccc2c(Nc3cccc(Cl)c3F)nccc2c1NC(=O)c1csc2c(N)ncnc12 ) reads 133

###

Molecular target: BCRP (ABCG2) (Homo sapiens)
Sequence (Q9UNQ0 1-655): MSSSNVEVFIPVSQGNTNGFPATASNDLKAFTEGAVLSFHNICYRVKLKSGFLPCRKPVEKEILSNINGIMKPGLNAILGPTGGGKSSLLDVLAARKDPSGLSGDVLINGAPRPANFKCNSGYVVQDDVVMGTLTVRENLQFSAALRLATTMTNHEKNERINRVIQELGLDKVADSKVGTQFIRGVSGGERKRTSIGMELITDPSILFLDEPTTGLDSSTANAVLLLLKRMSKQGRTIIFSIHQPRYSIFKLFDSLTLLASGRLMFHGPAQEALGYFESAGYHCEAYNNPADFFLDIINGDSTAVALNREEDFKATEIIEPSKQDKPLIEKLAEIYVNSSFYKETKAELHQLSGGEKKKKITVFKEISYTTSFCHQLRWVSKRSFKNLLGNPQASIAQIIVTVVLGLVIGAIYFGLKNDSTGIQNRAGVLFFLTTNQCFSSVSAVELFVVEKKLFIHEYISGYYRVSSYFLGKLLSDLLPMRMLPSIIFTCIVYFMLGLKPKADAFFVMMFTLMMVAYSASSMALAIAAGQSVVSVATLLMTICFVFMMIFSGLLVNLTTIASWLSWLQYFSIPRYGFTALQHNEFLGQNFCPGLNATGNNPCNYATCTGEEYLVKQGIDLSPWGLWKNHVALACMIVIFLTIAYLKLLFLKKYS
Assay: Vesicular transport inhibition assay
Details: BCRP-mediated E3S accumulation; estimated, top of the curve constrained at 100%
RECORDED ENDPOINT: pIC50
Friendly reminder that pIC50 comes from taking -log10 of the concentration in mol/L.

Query Cc1ccc2c(Nc3cccc(Cl)c3F)nccc2c1NC(=O)c1csc2c(N)ncnc12 [belvarafenib 2HCl] on BCRP (ABCG2) (Homo sapiens); pIC50 returned: 7.96
